- assayed.target: Melatonin receptor type 1B (Homo sapiens)
- Sequence (P49286 whole entry): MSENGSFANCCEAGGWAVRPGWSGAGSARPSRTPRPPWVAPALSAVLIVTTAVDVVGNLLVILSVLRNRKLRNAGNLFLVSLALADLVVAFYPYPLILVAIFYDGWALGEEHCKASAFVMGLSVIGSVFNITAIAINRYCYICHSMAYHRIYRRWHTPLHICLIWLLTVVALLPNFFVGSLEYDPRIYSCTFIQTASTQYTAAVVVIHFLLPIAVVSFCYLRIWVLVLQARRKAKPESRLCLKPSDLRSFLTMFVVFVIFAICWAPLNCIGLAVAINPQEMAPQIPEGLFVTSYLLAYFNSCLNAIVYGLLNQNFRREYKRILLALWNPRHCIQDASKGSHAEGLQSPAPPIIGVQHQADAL
- assay.info: Antagonist activity at MT2 receptor (unknown origin) expressed in mouse NIH3T3 cells by [35S]GTPgammaS binding assay
- Format: functional
readout.name: Ki (nM)
Could you give me the number in nM? Just the number is fine.

Ki for COc1ccc2c(c1)C(CNC(C)=O)Cc1ccccc1C2 (stereo unspecified) is 1.3

###

- assayed.target: Melatonin receptor type 1A (Homo sapiens, UniProt P48039)
- Sequence (P48039 whole entry): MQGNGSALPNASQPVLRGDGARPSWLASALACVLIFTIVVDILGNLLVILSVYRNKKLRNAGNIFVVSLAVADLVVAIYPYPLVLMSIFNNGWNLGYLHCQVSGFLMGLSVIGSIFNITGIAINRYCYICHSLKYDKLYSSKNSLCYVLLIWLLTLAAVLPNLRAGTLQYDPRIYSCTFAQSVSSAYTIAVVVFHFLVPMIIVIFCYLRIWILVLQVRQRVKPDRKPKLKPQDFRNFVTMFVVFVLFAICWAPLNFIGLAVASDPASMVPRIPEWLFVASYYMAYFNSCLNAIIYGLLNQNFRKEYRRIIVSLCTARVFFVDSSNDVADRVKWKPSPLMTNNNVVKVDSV
- assay.info: Antagonist activity at MT1 receptor (unknown origin) expressed in mouse NIH3T3 cells by [35S]GTPgammaS binding assay
- Type: functional
readout.name: pKi
Bear in mind: pKi is minus log10 of a mol/L concentration; give just that figure.

pKi for COc1ccc2c(c1)C(CNC(C)=O)Cc1ccccc1C2 (stereo unspecified) is 7.57

###

- assayed.target: Melatonin receptor type 1A (Homo sapiens, UniProt P48039)
- assay.info: Agonist activity at MT1 receptor (unknown origin) expressed in mouse NIH3T3 cells assessed as inhibition of forskolin-induced cAMP accumulation
- Assay type: functional, cell-based
readout.name: Ki (nM)
Could you give me the number in nM? Just the number is fine.

Ki for CCOC(=O)c1[nH]c2ccc(OC)c3c2c1[C@@H](CNC(C)=O)CC3 is 0.18

###

- assayed.target: Melatonin receptor type 1B (Homo sapiens, UniProt P49286)
- assay.info: Displacement of [125I]2-iodomelatonin from human MT2 receptor expressed in CHO cells
- Type: cell-based
Threshold 100 nM. Ki below it: Criterion met. Ki at it or above: Criterion not met.

# example entries with known answers
- CC(=O)NCCc1cccc2ccc(-c3ccc4cccc(CCNC(C)=O)c4c3)cc12: Criterion not met
- CC(=O)NCCc1c[nH]c2ccc(OCCCc3ccccc3)cc12: Criterion met
- CC(=O)NCCc1cccc2ccc(OCCCCOc3ccc4cccc(CCNC(C)=O)c4c3)cc12: Criterion not met
- CC(=O)NCCc1cccc2ccc(OCCCOc3ccc4cccc(CCNC(C)=O)c4c3)cc12: Criterion not met
- CC(=O)NCCc1c[nH]c2ccc(OCCCOc3ccccc3)cc12: Criterion met

Turning to the following compound.
Here's an entry: CCCCCCOc1ccc2c(c1)C(CCNC(C)=O)CCO2 (stereo unspecified) . Is its Ki below 100 nM?
Criterion met

###

- assayed.target: Melatonin receptor type 1A (Homo sapiens, UniProt P48039)
- assay.info: Displacement of [125I]2-iodomelatonin from human MT1 receptor expressed in CHO cells
- Format: cell-based
compounds and their reported pKi
Bear in mind: pKi is minus log10 of a mol/L concentration; give just that figure.

# count of solved cases: 5
• CC(=O)NCCc1c[nH]c2ccc(OCCCOc3ccccc3)cc12 = 8.10
• CC(=O)NCCc1cccc2ccc(OCCCOc3ccc4cccc(CCNC(C)=O)c4c3)cc12 = 8.41
• CC(=O)NCCc1cccc2ccc(OCCCCOc3ccc4cccc(CCNC(C)=O)c4c3)cc12 = 8.51
• CC(=O)NCCc1cccc2ccc(-c3ccc4cccc(CCNC(C)=O)c4c3)cc12 = 8.28
• CCCCCCOc1ccc2c(c1)C(CCNC(C)=O)CCO2 (stereo unspecified) = 8.47

Now examine the next entry.
pKi for CC(=O)NCCc1c[nH]c2ccc(OCCCc3ccccc3)cc12 is 8.41

###

compounds and their reported Ki
- assayed.target: UniProtKB P48039
- assay.info: biochemical
Could you give me the number in nM? Just the number is fine.

* CCC(=O)NC1Cc2ccccc2C(c2ccccc2)C1 (racemic) | 501

Ki for COc1cc2[nH]cc(CCNC(C)=O)c2cc1OC is 207

###

- assayed.target: Melatonin receptor type 1B (Homo sapiens, UniProt P49286)
- Sequence (P49286 whole entry): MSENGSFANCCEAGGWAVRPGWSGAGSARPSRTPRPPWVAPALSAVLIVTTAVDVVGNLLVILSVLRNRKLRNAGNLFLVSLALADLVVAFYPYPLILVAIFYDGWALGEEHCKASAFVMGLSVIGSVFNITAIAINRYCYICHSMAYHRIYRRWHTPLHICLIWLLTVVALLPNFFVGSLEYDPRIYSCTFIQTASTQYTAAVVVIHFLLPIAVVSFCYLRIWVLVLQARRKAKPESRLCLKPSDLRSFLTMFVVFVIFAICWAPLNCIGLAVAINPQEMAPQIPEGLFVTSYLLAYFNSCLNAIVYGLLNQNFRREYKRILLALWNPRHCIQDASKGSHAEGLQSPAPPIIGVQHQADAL
- assay.info: Agonist activity at MT2 receptor (unknown origin) expressed in mouse NIH3T3 cells assessed as inhibition of forskolin-induced cAMP accumulation
- Assay type: functional, cell-based
readout.name: Ki (nM)
Could you give me the number in nM? Just the number is fine.

- CC(=O)NCCN(C)c1cccc(OCCCCc2ccccc2)c1: 91.2

Now examine the next entry.
The compound CCOC(=O)c1[nH]c2ccc(OC)c3c2c1[C@@H](CNC(C)=O)CC3 , when measured on Melatonin receptor type 1B (Homo sapiens, UniProt P49286), yielded Ki of 0.29

###

compounds and their reported Ratio Ki
- Organism: Homo sapiens
- assay.info: Selectivity ratio of Ki for human recombinant MT1 receptor to Ki for human recombinant MT2 receptor
Keep the answer to the number alone.

# count of solved cases: 5
- CCCC(=O)NCCc1c2n(c3ccc(OC)cc13)Cc1ccccc1-2: 89
- CCC(=O)NC1Cc2ccccc2C(c2ccccc2)C1 (racemic): 330
- COc1ccc2[nH]c(Cc3ccccc3)c(CCNC(C)=O)c2c1: 130
- CCCC(=O)NCCc1c2n(c3ccc(OC)cc13)CCCc1ccccc1-2: 132
- CC(=O)NCCc1c(Cc2ccccc2)[nH]c2ccccc12: 15

Now examine the next entry.
Ratio Ki for COc1cc2[nH]cc(CCNC(C)=O)c2cc1OC is 60

###

- assayed.target: Melatonin receptor type 1B (Homo sapiens)
- assay.info: Binding affinity to MT2 receptor (unknown origin) expressed in HEK cells
- Assay type: cell-based, HEK293
readout.name: Ki (nM)
Could you give me the number in nM? Just the number is fine.

Ki for CCCCCCOc1ccc2c(c1)C(CCNC(C)=O)CCO2 (stereo unspecified) is 29

###

- assayed.target: CYP3A4 (Homo sapiens, UniProt P08684)
- Sequence (P08684 whole entry): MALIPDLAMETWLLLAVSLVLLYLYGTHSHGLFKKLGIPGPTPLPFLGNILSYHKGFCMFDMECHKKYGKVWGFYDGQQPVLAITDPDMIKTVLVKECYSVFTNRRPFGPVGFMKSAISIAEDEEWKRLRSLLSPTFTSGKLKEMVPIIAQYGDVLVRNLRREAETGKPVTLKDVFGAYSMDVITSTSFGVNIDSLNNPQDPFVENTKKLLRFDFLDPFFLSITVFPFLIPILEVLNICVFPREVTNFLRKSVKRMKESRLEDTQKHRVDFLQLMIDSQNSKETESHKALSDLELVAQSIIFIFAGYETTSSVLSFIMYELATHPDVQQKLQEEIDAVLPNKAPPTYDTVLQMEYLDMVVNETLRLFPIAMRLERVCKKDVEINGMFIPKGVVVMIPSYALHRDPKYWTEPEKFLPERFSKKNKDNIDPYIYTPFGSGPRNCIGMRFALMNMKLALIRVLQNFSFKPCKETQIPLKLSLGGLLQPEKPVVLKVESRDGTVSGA
- assay.info: Half life of the compound assessed as CYP3A4 (unknown origin)-mediated drug metabolism
- Assay type: ADME
readout.name: half-life
Your answer should be a number followed by the unit of measure.

half-life for COc1ccc2[nH]cc(CCNC(C)=O)c2c1 [MELATONIN] is 20 min

###

- Species on record: Homo sapiens
- assay.info: Selectivity ratio of Ki for human MT2 receptor to Ki for human MT1 receptor
readout.name: Ratio Ki
Keep the answer to the number alone.

# count of solved cases: 3
- CC(=O)NCCc1c[nH]c2ccc(OCCCOc3ccccc3)cc12: 10
- CC(=O)NCCc1cccc2ccc(OCCCCOc3ccc4cccc(CCNC(C)=O)c4c3)cc12: 54
- CC(=O)NCCc1c[nH]c2ccc(OCCCc3ccccc3)cc12: 10

Ratio Ki for CC(=O)NCCc1cccc2ccc(OCCCOc3ccc4cccc(CCNC(C)=O)c4c3)cc12 is 3

Ratio Ki for O=C(NCCCc1cccc2nc(CCCCc3ccccc3)oc12)C1CC1 is 35

###

- assayed.target: Melatonin receptor type 1B (Homo sapiens)
- Sequence (P49286 whole entry): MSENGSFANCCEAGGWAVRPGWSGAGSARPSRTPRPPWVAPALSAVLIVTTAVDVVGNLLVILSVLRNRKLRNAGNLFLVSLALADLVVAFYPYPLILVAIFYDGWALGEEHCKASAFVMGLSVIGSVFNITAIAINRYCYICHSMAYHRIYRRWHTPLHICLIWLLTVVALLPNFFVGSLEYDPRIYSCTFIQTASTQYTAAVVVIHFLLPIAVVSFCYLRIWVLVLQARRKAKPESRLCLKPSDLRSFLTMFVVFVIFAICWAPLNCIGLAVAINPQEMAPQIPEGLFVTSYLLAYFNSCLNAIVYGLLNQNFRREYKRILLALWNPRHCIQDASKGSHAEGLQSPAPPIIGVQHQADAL
- assay.info: Displacement of [125I]2-iodomelatonin from MT2 receptor (unknown origin) expressed in HEK293 cells
- Assay type: cell-based
readout.name: pKi
Bear in mind: pKi is minus log10 of a mol/L concentration; give just that figure.

pKi for COc1cccc(Cc2oc3ccc(OC)cc3c2CCNC(C)=O)c1 is 9.48
